- Assay protocol: in vivo
- Experimental context: CD1, mouse, plasma, iv, 10 mg/kg
Reported endpoint: MRT (h)
Provide the reading as a plain figure in h.

Q) Requested read-out: MRT. Entry: CN(C)c1ccc(/C=C/c2cc(-c3ccc(F)cc3)cc(-c3ccc(F)cc3)[o+]2)cc1 [Compound 7jc47-1]
A) 1.74

* * *

- System: Enterococcus faecium
- Assay protocol: Antibacterial activity assay (MIC, broth dilution)
- Assay type: cell-based
- Experimental context: Enterococcus faecium; Table 16; CLSI M07-A10 dilution method; read-out: MIC E. faecium
For each entry below, report its MIC value.
# unit: µg/mL | format: bare number

Q) What MIC value was documented for this compound, `CN(C)c1ccc(/C=C/c2cc(-c3cccc(Br)c3)cc(-c3ccc(Br)cc3)[n+]2C)cc1` ?
A) 2

Q) Again, but for `COc1cc(-c2cc(/C=C/c3ccc(N(C)CCC#N)cc3)[n+](C)c(-c3ccc(Br)cc3)c2)cc(OC)c1Br.[I-]`
A) 8

Q) Then `COc1cc(-c2cc(/C=C/c3ccc(N(C)C)cc3)[n+](C)c(-c3ccc(Br)cc3)c2)cc(OC)c1Br.[I-]` ?
A) 8

Q) Please answer likewise for `Cc1ccc(-c2cc(-c3ccc(Br)cc3)cc(/C=C/c3ccc(N(C)CCO)cc3)[n+]2C)cc1C.[I-]`
A) 8

Q) Also check `CCN(CC)c1ccc(/C=C/c2cc(-c3ccc(Cl)cc3)cc(-c3ccc(C)cc3)[n+]2C)cc1.[I-]`
A) 16

Q) Item: `CN(CCO)c1ccc(/C=C/c2cc(-c3ccc(Br)cc3Cl)cc(-c3ccc(Br)cc3)[n+]2C)cc1.[I-]`
A) 4

Q) Entry to check: `CC[n+]1c(/C=C/c2ccc(N(C)C)cc2)cc(-c2ccc(Br)cc2)cc1-c1ccc(C)cc1.[I-]`
A) 2

Q) Next up: `CN(C)c1ccc(/C=C/c2cc(-c3ccc(Br)cc3)cc(-c3cccc(Br)c3)[n+]2C)cc1.[I-]`
A) 4

Q) Then what about the compound `CCN(CC)c1ccc(/C=C/c2cc(-c3ccc(Br)cc3)cc(-c3ccc(Br)cc3)[n+]2C)cc1F.[I-]` ?
A) 32

Q) Can you check `CCN(C)c1ccc(/C=C/c2cc(-c3ccc(Br)cc3)cc(-c3ccc(Br)cc3)[n+]2C)cc1.[I-]` next?
A) 8

Q) `CCN(CC)c1ccc(/C=C/c2cc(-c3ccc(Br)cc3)cc(-c3ccc(C)cc3C)[n+]2C)cc1.[I-]` , same question.
A) 1

Q) Follow-up entry: `Cc1ccc(-c2cc(-c3ccc(Cl)cc3)cc(/C=C/c3ccc(N(C)CCC#N)cc3)[n+]2C)cc1.[I-]`
A) 2

Q) Similarly, `CN(C)c1ccc(/C=C/c2cc(-c3ccc(Br)cc3Cl)cc(-c3ccc(Br)cc3)[n+]2C)cc1.[I-]` ?
A) 8

Q) Field entry: `Cc1ccc(-c2cc(/C=C/c3ccc(N(C)C)cc3)[n+](C)c(-c3ccc(Br)cc3)c2)cc1`
A) 4

Q) And `CN(CCC#N)c1ccc(/C=C/c2cc(-c3ccc(Br)cc3)cc(-c3ccc(Br)cc3)[n+]2C)cc1.[I-]` ?
A) 32

Q) Can you handle `CCN(CC)c1ccc(/C=C/c2cc(-c3ccc(Br)cc3)cc(-c3cccc(Br)c3)[n+]2C)cc1.[I-]` next?
A) 4

Q) Also need `Cc1ccc(/C=C/c2cc(-c3ccc(Br)cc3)cc(-c3ccc(Br)cc3)[n+]2C)cc1.[I-]` , thanks.
A) 4

Q) Similarly, `Cc1ccc(-c2cc(-c3ccc(Cl)cc3)cc(/C=C/c3ccc(N(C)CCO)cc3)[n+]2C)cc1.[I-]` ?
A) 2

Q) Proceed to `Cc1ccc(-c2cc(-c3ccc(Br)cc3)cc(/C=C/c3ccc(N(C)C)cc3)[n+]2C)c(C)c1.[I-]`
A) 1

Q) Further, for `COc1cc(-c2cc(/C=C/c3ccc(N(C)CCO)cc3)[n+](C)c(-c3ccc(Br)cc3)c2)cc(OC)c1Br.[I-]` ?
A) 8

Q) Then what about the compound `CN(C)c1ccc(/C=C/c2cc(-c3ccc(Cl)cc3)cc(-c3ccc(Br)cc3)[n+]2C)cc1.[I-]` ?
A) 4

Q) Do the same for `CCN(CC)c1ccc(/C=C/c2cc(-c3ccc(Br)cc3)cc(-c3ccc(C)c(C)c3)[n+]2C)cc1.[I-]` please
A) 4

Q) Input `CC[n+]1c(/C=C/c2ccc(N(C)CCO)cc2)cc(-c2ccc(Br)cc2)cc1-c1ccc(C)cc1`
A) 4

Q) Similarly, `CCC[n+]1c(/C=C/c2ccc(N(C)C)cc2)cc(-c2ccc(Br)cc2)cc1-c1ccc(C)cc1.[I-]` ?
A) 2

Q) Please do the same for `Cc1ccc(-c2cc(-c3ccc(Br)cc3)cc(/C=C/c3ccc(N(C)CCC#N)cc3)[n+]2C)cc1C.[I-]` as well.
A) 8

Q) `CN(C)c1ccc(/C=C/c2cc(-c3ccc(Br)cc3)cc(-c3ccc(Br)cc3)[n+]2C)cc1.[I-]` , same question.
A) 8

Q) Same question, `Cc1ccc(-c2cc(-c3ccc(Br)cc3)cc(/C=C/c3ccc(N(C)CCO)cc3)[n+]2C)c(C)c1.[I-]` this time
A) 2

Q) Do the same for `CCN(CC)c1ccc(/C=C/c2cc(-c3cc(OC)c(Br)c(OC)c3)cc(-c3ccc(Br)cc3)[n+]2C)cc1.[I-]` please
A) 4

Source: patent US10941114B2
